- Species: Mus musculus
- Procedure text: Toxicity in NMRI mouse assessed as irritant dose 50 causing ear redness after 5 hours assessed per ear
- Format: organism-based
- Applied conditions: in vivo, topical_or_ocular
Endpoint label: Activity

Previously resolved entries follow.
C=C(C)[C@]12C[C@@H](C)[C@@]34O[C@](Cc5ccccc5)(O[C@@H]1[C@@H]3C=C(COC(=O)Cc1ccc(OC)c(OC)c1)C[C@]1(O)C(=O)C(C)=C[C@@H]41)O2 [RESINIFERATOXIN METHYL ETHER] | 4.7 ×10⁻⁴ nmol
C=C(C)[C@]12C[C@@H](C)[C@@]34O[C@](CCCCCCCCCCCCC)(O[C@@H]1[C@@H]3C=C(CO)C[C@]1(O)C(=O)C(C)=C[C@@H]41)O2 | > 30 nmol
C=C(C)[C@]12C[C@@H](C)[C@@]34O[C@](Cc5ccccc5)(O[C@@H]1[C@@H]3C=C(CO)C[C@]1(O)C(=O)C(C)=C[C@@H]41)O2 | 1 nmol

Field request: Activity | item: C=C(C)[C@]12C[C@@H](C)[C@@]34O[C@](Cc5ccccc5)(O[C@@H]1[C@@H]3C=C(COC(=O)c1ccccc1)C[C@]1(O)C(=O)C(C)=C[C@@H]41)O2
1.2 ×10⁻² nmol

Also need C=C(C)[C@]1(O)C[C@@H](C)[C@@]2(O)[C@@H](C=C(COC(=O)Cc3ccccc3)C[C@]3(O)C(=O)C(C)=C[C@@H]23)[C@H]1O , thanks.
> 100 nmol
